Tested on: Vero E6
Experiment: cell viability relative to DMSO; higher = less toxic
Conditions: 72 h; 10 nM
measured property: cell viability (%)
Please respond with the number in % and leave the unit unwritten.

Worked examples, 8 compounds total:
| compound | cell viability, % |
| --- | --- |
| COc1cc(C(C)=O)ccc1OCCCN1CCC(c2noc3cc(F)ccc23)CC1 [iloperidone] | 96.7 |
| COc1cc2c(Oc3ccc4[nH]c(C)cc4c3F)ccnc2cc1OCC1(N)CC1 [anlotinib] | 98.6 |
| COc1ccc2c(C(=S)N(C)CC(=O)O)cccc2c1C(F)(F)F [tolrestat] | 95.9 |
| CN(C)/C=N/c1c(I)cc(I)c(CCC(=O)O)c1I [iopodic-acid] | 101 |
| CCCC(C(=O)OCCN(CC)CC)(c1ccccc1)c1ccccc1 [proadifen] | 96 |
| COc1cc2ncn(-c3cc(OCc4ccccc4C(F)(F)F)c(C(N)=O)s3)c2cc1OC | 96 |
| Cc1ccc(Sc2cncc3sc(C(N)=O)cc23)cc1 | 98.3 |
| COC(=O)/C=C/C(=O)OCCN1C(=O)CCC1=O [diroximel-fumarate] | 102 |

input: Give the measured cell viability of CNC(=O)c1cccc2cc(Oc3ccnc4cc(OCC5(N)CC5)c(OC)cc34)ccc12 [lucitanib] .
output: 100

input: Reported cell viability, compound Nc1ncn([C@@H]2O[C@H](CO)[C@@H](O)[C@H]2O)c(=O)n1 [azacitidine] : ____
output: 102

input: Recorded cell viability of CCC(Cc1c(I)cc(I)c(N)c1I)C(=O)O (configuration not stated) [iopanic-acid] , please.
output: 103

input: Give the measured cell viability of Clc1ccc(C2=CCC[C@H]3CC[C@@H]2N3)cn1 [UB-165] .
output: 102

input: Param item = CC1=NN(c2ccc(C)c(C)c2)C(=O)/C1=N\Nc1cccc(-c2cccc(C(=O)O)c2)c1O [eltrombopag] ; retrieve measured cell viability.
output: 93.5

input: Could you tell me which cell viability is on file for C[C@@H](c1nc(-c2ccc(C#N)cc2)cs1)[C@](O)(Cn1cncn1)c1cc(F)ccc1F [isavuconazole] ?
output: 98

input: Fill in: cell viability of O=C1NCCc2[nH]c(-c3ccncc3)cc21 is ___
output: 98.2

input: # input compound: O=C(O)CCC(=O)Nc1ccc(S(=O)(=O)Nc2nccs2)cc1 [succinylsulfathiazole] ; wanted: its cell viability
output: 97.3

input: Data request, read-out cell viability, for Nc1nc(=O)n([C@@H]2CS[C@H](CO)O2)cc1F [emtricitabine]
output: 102

input: For the compound shown here, NCC(CC(=O)O)c1ccc(Cl)cc1 (configuration not stated) [baclofen] , give the reported cell viability.
output: 96.8

input: Look up cell viability: C=CC(=O)Nc1cccc(C)c1Nc1ncc2cc(-c3c(Cl)c(OC)cc(OC)c3Cl)ccc2n1 [BLU9931]
output: 98.8

input: Need cell viability, item O=C1/C(=C/c2ccccc2)C[C@@]2(O)[C@H]3Cc4ccc(O)c5c4[C@@]2(CCN3CC2CC2)[C@H]1O5 [BNTX]
output: 102

input: Which cell viability value belongs to CCN(CC)C(=O)[C@@]1(c2ccccc2)C[C@H]1CN [milnacipran] ?
output: 102

input: # query: cell viability of entry C[C@@H](N)[C@H]1CC[C@H](C(=O)Nc2ccncc2)CC1
output: 99.1

Provenance of the data: the supplement of paper PMC13380429
